Readings of IC50 for the listed compounds
# Test target: Nuclear receptor subfamily 1 group I member 2 (Homo sapiens, UniProt O75469)
# Sequence (O75469 whole entry): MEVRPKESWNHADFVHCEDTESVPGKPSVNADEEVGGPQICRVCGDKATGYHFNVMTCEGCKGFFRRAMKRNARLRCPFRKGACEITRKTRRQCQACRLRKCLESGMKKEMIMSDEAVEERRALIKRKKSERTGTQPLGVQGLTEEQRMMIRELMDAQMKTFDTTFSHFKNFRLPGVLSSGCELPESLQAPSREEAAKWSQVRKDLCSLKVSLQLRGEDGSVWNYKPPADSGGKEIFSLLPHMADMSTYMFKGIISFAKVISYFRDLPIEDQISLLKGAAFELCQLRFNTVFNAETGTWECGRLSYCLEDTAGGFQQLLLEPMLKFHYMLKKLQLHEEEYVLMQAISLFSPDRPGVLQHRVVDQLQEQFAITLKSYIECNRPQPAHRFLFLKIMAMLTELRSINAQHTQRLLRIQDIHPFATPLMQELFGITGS
# Test description: Transactivation of human PXR in human HepG2 cells co-expressing luciferase gene under control of CYP3A4 promoter assessed as increase in luciferase activity incubated for 24 hrs by luminescence based analysis
Property: IC50

Compound structure string | Experimental result
CC(C)(O)c1ccc(NC(=O)c2cc(C(=O)NCc3ccc(F)c(F)c3)c(F)cc2Cl)cc1 | > 49.8 µM
Cc1cc(OC(F)F)ccc1NC(=O)c1cc(C(=O)NCc2ccc(F)cc2)c(F)cc1Cl | 14.7 µM
Cc1cc(N2CCOCC2)cnc1NC(=O)c1cc(C(=O)NCc2ccc(F)c(F)c2)c(F)cc1Cl | > 49.8 µM
